target: hNAMPT protein (Homo sapiens (Human), UniProt P43490); experiment: NAMPT enzyme assay (TR-FRET/HTRF, BodiPY ligand, anti 6His-Tb); format: binding; settings: NAMPT inhibition, IC50 range class; read-out: IC50
Sequence (P43490 whole entry): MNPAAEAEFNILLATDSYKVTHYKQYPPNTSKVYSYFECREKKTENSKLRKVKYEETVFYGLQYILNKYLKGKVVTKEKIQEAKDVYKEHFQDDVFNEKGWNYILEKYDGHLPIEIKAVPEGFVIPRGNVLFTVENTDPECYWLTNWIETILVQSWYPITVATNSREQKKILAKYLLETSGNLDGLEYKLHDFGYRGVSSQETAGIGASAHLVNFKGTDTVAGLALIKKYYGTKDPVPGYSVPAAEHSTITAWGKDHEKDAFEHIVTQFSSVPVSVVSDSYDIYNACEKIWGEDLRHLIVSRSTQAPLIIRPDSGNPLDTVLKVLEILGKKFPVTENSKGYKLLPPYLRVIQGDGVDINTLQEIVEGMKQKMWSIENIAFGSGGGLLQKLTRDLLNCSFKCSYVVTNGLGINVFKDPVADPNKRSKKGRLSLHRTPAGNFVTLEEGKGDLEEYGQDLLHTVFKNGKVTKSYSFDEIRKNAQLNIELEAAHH
assayEndpoint: IC50

See these solved cases before continuing.
O=C(NCCCc1ncc[nH]1)c1ccc2nc(-c3ccc(F)cc3)c(-c3ccc(Cl)c(Cl)c3)nc2c1	< 100 nM
C#Cc1cccc(-c2nc3cc(C(=O)NCCCc4ncc[nH]4)ccc3nc2-c2ccc(F)cc2)c1	100 to 500 nM
COCC(COC)Oc1nc2ccc(C(=O)NCCCc3ncc[nH]3)cc2nc1-c1ccc(F)cc1	100 to 500 nM
O=C(NCCCc1ncc[nH]1)c1ccc2nc(-c3ccc(F)cc3)c(-c3ccc(Cl)s3)nc2c1	< 100 nM
O=C(NCCCc1ncc[nH]1)c1ccc2nc(OCc3ncc[nH]3)c(-c3ccc(F)cc3)nc2c1	500 to 1000 nM

[Q] Fill blank: measured IC50 of the compound O=C(NCCCc1ncc[nH]1)c1ccc2nc(OC3CCNCC3)c(-c3ccc(F)cc3)nc2c1 is ____.
[A] < 100 nM

[Q] So what's the measured IC50 for this one? O=C(NCCCc1ncc[nH]1)c1ccc2nc(-c3ccc(F)cc3)c(-c3ccc(Cl)cc3F)nc2c1
[A] 100 to 500 nM
